Entry source: patent US8435990B2

ASSAYED_SYSTEM: human P2X7 (Homo sapiens, UniProt Q99572)
Construct: 1321N1 cells stably expressing the full length human P2X7 gene (1321N1-hP2X7)
EXPERIMENT_SUMMARY: P2X7 modulator pIC50 of Table 1 (assay not given; Intracellular Calcium Flux (FLIPR) Assay assumed)
READOUT_TYPE: IC50 (nM)

Record excerpt, results attached:
>>> data_value("CN1C=C(C(=O)Nc2cccc3c(=O)n(C)ccc23)[C@H](c2ccc(F)cc2)NC1=O")
63.1
>>> data_value("Cc1ccc(-n2ccc(=O)n(C)c2=O)cc1NC(=O)C1=CN(C)C(=O)N[C@H]1c1ccc(F)cc1")
37.6

I: COc1cc(C)c(NC(=O)C2=CN(CCO)C(=O)NC2c2ccc(F)cc2)cc1OC (centres unmarked)
II: Cc1ccc(=O)n(-c2ccc(C)c(NC(=O)C3=CN(C)C(=O)N[C@H]3c3ccc(F)cc3)c2)n1
III: Cc1cc(Cl)c(-n2cccc(C)c2=O)cc1NC(=O)C1=CN(C)C(=O)N[C@H]1c1ccc(F)cc1
Problem: Sort by IC50, descending. Return value: ordered labels per request.
Result: I, II, III
(I: 111 nM, II: 40.3 nM, III: 19.5 nM)

I: Cc1ccc(-c2ccc(=O)n(C)n2)cc1NC(=O)C1=CN(C)C(=O)N[C@H]1c1ccc(F)cc1
II: Cc1cc(Cl)c(OCCO)cc1NC(=O)C1=CN(C)C(=O)NC1c1ccccc1 (centres unmarked)
Problem: Please indicate which item has the smaller measured IC50: I versus II Choose, then provide that item's label.
Result: II
(II: 15 nM, I: 72.4 nM)

a: Cc1ccc(-n2cccc(C)c2=O)cc1NC(=O)C1=CN(C)C(=O)N[C@H]1c1ccc(F)cc1
b: Cc1ccc(-n2ccc(=O)[nH]c2=O)cc1NC(=O)C1=CN(C)C(=O)N[C@H]1c1ccc(F)cc1
Problem: a or b : whose IC50 is greater? Choose, then provide that item's label.
Result: a

A: Cc1ccc(-c2cc(C)n(C[C@@H](O)CO)n2)cc1NC(=O)C1=CN(C)C(=O)N[C@H]1c1ccc(F)cc1
B: CN1C=C(C(=O)Nc2cc(N3CCCC3=O)ccc2Br)[C@H](c2ccc(F)cc2)NC1=O
C: Cc1ccc(-c2ccnn(C)c2=O)cc1NC(=O)C1=CN(C)C(=O)N[C@H]1c1cccc(F)c1
Problem: # ascending order, key=IC50 Return value: ordered labels per request.
Result: A, C, B

====

ASSAYED_SYSTEM: human P2X7 (Homo sapiens, UniProt Q99572)
Construct: 1321N1 cells stably expressing the full length human P2X7 gene (1321N1-hP2X7)
EXPERIMENT_SUMMARY: P2X7 modulator pIC50 of Table 1 (assay not given; Intracellular Calcium Flux (FLIPR) Assay assumed)
READOUT_TYPE: IC50 (nM)

1: Cc1ccc(-n2ncccc2=O)cc1NC(=O)C1=CN(C)C(=O)N[C@H]1c1ccc(F)cc1 [Compound 26]
2: Cc1ccc2[nH]c(=O)ccc2c1NC(=O)C1=CN(C)C(=O)N[C@H]1c1ccc(F)cc1 [Compound 31]
3: Cc1cc(-c2ccc(C)c(NC(=O)C3=CN(C)C(=O)N[C@H]3c3ccc(F)cc3)c2)n[nH]1 [Compound 7]
4: Cc1ccc(-c2ccnn(C)c2=O)cc1NC(=O)C1=CN(C)C(=O)N[C@H]1c1ccc(F)cc1 [Compound 22]
5: Cc1cc(Cl)c(-n2ncccc2=O)cc1NC(=O)C1=CN(C)C(=O)N[C@H]1c1ccc(F)cc1 [Compound 63]
Problem: Put the above compounds in order of rising IC50, beginning with the smallest. Return value: ordered labels per request.
Result: 4, 1, 3, 5, 2

====

ASSAYED_SYSTEM: human P2X7 (Homo sapiens, UniProt Q99572)
Construct: 1321N1 cells stably expressing the full length human P2X7 gene (1321N1-hP2X7)
Sequence (Q99572 1-595): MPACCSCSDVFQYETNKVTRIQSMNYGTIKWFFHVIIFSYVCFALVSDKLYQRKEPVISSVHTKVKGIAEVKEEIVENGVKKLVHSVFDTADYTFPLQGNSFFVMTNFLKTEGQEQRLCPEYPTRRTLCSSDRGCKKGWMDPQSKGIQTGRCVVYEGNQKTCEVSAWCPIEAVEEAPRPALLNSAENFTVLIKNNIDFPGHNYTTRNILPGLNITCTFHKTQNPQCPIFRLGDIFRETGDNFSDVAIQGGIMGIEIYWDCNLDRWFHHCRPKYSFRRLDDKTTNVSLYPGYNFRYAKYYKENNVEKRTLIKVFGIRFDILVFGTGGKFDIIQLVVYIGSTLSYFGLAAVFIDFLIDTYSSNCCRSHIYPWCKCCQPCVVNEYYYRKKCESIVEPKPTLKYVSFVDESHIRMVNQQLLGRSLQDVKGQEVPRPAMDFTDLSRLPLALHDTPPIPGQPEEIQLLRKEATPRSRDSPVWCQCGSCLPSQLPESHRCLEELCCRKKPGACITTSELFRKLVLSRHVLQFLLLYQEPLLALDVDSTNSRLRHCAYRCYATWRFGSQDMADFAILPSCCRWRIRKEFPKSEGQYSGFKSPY
EXPERIMENT_SUMMARY: P2X7 modulator pIC50 of Table 1 (assay not given; Intracellular Calcium Flux (FLIPR) Assay assumed)
pIC50: −log10 of the molar value.
READOUT_TYPE: pIC50

Record excerpt, results attached:
>>> data_value("COc1cc(C)c(NC(=O)C2=CNC(=O)NC2c2ccc(F)cc2)cc1OC (stereo not drawn)")
7.46
>>> data_value("Cc1cc(-c2ccc(C)c(NC(=O)C3=CNC(=O)N[C@@H]3c3ccc(F)cc3)c2)n[nH]1")
6.76
>>> data_value("COC[C@H](O)Cn1nc(-c2ccc(C)c(NC(=O)C3=CN(C)C(=O)N[C@H]3c3ccc(F)cc3)c2)ccc1=O")
7.39
>>> data_value("Cc1ccc2c(C)c(NC(=O)C3=CN(C)C(=O)N[C@H]3c3ccc(F)cc3)ccc2n1")
7.81

I: Cc1ccc2ncccc2c1NC(=O)C1=CN(C)C(=O)N[C@H]1c1ccc(F)cc1
II: Cc1ccc(-c2nnc(C)n2C)cc1NC(=O)C1=CN(C)C(=O)N[C@H]1c1ccc(F)cc1
Problem: I or II : whose pIC50 is greater? Choose, then provide that item's label.
Result: II
(II: 7.66, I: 6.92)
